Value source: ChEMBL document CHEMBL1124186

# System: Haemophilus influenzae
# method: In vitro antimicrobial activity against Haemophilus influenzae.
# Format: functional
readout: MIC (µg/mL)

line-notation	readout	endpoint-unit	numeric-value
CC[C@H]1OC(=O)C[C@@H](O)[C@H](C)[C@@H](O[C@@H]2O[C@H](C)[C@@H](O)[C@H](N(C)C)[C@H]2O)[C@@H](CCOS(=O)(=O)c2ccc(C)cc2)C[C@@H](C)C(=O)/C=C/C(C)=C/[C@@H]1CO[C@@H]1O[C@H](C)[C@@H](O)[C@@H](OC)[C@H]1OC	MIC	µg/mL	32
CC[C@H]1OC(=O)C[C@@H](O)[C@H](C)[C@@H](O[C@@H]2O[C@H](C)[C@@H](O)[C@H](N(C)C)[C@H]2O)[C@@H](CCOc2ccc(Oc3ccccc3)cc2)C[C@@H](C)C(=O)/C=C/C(C)=C/[C@@H]1CO[C@@H]1O[C@H](C)[C@@H](O)[C@@H](OC)[C@H]1OC	MIC	µg/mL	16
CC[C@H]1OC(=O)C[C@@H](O)[C@H](C)[C@@H](O[C@@H]2O[C@H](C)[C@@H](O)[C@H](N(C)C)[C@H]2O)[C@@H](CCOc2ccc(C=O)cc2)C[C@@H](C)C(=O)/C=C/C(C)=C/[C@@H]1CO[C@@H]1O[C@H](C)[C@@H](O)[C@@H](OC)[C@H]1OC	MIC	µg/mL	16
